- target-or-system: recombinant human CD200 Fc Chimera (human) (UniProt P41217)
- method-description: SPR (Biacore 3000), CD200-Fc captured by anti-human Fc on CM5, Fab injected, 1:1 Langmuir
Measured kon values are reported for all entries that follow.
Quick note: give the figure in M⁻¹ s⁻¹, leave out the unit.

Worked examples follow.
# binder, kon / M⁻¹ s⁻¹
rows = [
    ("TPP-100 (Fab, V domains shown) VH: EVQLQQSGPELVKPGASLKMSCKASGYSFTDYIILWVKQNHGKSLEWIGHIDPYYGSSNYNLKFKGKATLTVDKSSSTAYMQLNSLTSEDSAVYYCGRSKRDYFDYWGQGTTLTVSS VL: DIQMTQSPSSMYASLGERVTITCKASQDINSYLSWFQQKPGKSPKTLIYRANRLVDGVPSRFSGSGSGQDYSLTISSLEYEDMGIYYCLQYDEFPYTFGGGTKLEIK", "1.51e+06"),
    ("TPP-107 (Fab, V domains shown) VH: QVQLVQSGAEVKKPGSSVKVSCKASGYSFTDYIILWVRQAPGQGLEWMGHIDPYYGSSNYNLKFKGRVTITADESTSTAYMELSSLRSEDTAVYYCARSKRDYFDYWGQGTLVTVSS VL: DIQMTQSPSSLSASVGDRVTITCKASQDINSYLSWFQQKPGKAPKSLIYRANRLVDGVPSRFSGSGSGTDFTLTISSLQPEDFATYYCLQYDEFPYTFGQGTKLEIK", 885000),
]

Find the recorded kon belonging to TPP-111 (Fab, V domains shown) VH: QVQLVQSGAEVKKPGASVKVSCKASGYSFTDYIILWVRQAPGQGLEWMGHIDPYYGSSNYNLKFKGRVTMTTDTSTSTAYMELRSLRSDDTAVYYCARSKRDYFDYWGQGTLVTVSS VL: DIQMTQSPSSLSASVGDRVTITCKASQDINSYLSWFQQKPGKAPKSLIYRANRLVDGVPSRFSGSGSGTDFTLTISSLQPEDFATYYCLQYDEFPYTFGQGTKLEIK and report it. 1.23e+06

Find the recorded kon belonging to TPP-103 (Fab, V domains shown) VH: QVQLVQSGAEVKKPGASVKVSCKASGYSFTDYIILWVRQAPGQGLEWMGHIDPYYGSSNYNLKFKGRVTMTRDTSTSTVYMELSSLRSEDTAVYYCARSKRDYFDYWGQGTLVTVSS VL: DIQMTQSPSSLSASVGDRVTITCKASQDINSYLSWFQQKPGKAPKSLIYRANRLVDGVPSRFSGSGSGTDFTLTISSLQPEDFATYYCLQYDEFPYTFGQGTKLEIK and report it. 694000

Find the recorded kon belonging to TPP-115 (Fab, V domains shown) VH: QVQLVQSGAEVKKPGASVKVSCKASGYSFTDYIILWVRQAPGQGLEWMGHIDPYYGSSNYNLKFKGRVTMTRDTSISTAYMELSRLRSDDTAVYYCARSKRDYFDYWGQGTLVTVSS VL: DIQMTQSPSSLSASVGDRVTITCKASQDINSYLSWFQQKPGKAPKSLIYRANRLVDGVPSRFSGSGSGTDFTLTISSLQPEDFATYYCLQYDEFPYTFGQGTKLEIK and report it. 1.31e+06

Find the recorded kon belonging to TPP-101 (Fab, V domains shown) VH: QVQLQQSGSELKKPGASVKISCKASGYSFTDYIILWVRQNPGKGLEWIGHIDPYYGSSNYNLKFKGRVTITADQSTTTAYMELSSLRSEDTAVYYCGRSKRDYFDYWGQGTTLTVSS VL: DIQMTQSPSSLSASIGDRVTITCKASQDINSYLSWFQQKPGKAPKLLIYRANRLVDGVPSRFSGSGSGTDYTLTISSLQPEDFAVYYCLQYDEFPYTFGGGTKLEIK and report it. 2.67e+06

Find the recorded kon belonging to TPP-131 (Fab, V domains shown) VH: QMQLVQSGAEVKKTGSSVKVSCKASGYSFTDYIILWVRQAPGQALEWMGHIDPYYGSSNYNLKFKGRVTITRDRSMSTAYMELSSLRSEDTAMYYCARSKRDYFDYWGQGTLVTVSS VL: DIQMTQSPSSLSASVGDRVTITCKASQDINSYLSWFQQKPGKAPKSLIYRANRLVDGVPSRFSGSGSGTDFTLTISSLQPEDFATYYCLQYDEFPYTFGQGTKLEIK and report it. 2.65e+06

Provenance of the data: patent US20210230273A1
